Origin of measurements: patent US20230348415A1

experiment: In vivo PK in CD-1 mice (IV and PO); set-up: species or system mouse; settings: mouse, whole blood; PO 5 mg/kg, male CD-1 mice
metric.name: Tmax (min)
Answers are plain numbers, in min.

Any idea what its Tmax is? The compound is Cc1cc(C(=O)O)nc(N2CCC(COc3ccccc3C(F)(F)F)C2)n1 (racemic) [Compound (±)-44] 49.8

###

test: Plasma protein binding, mouse plasma; assay type: in vitro ADME; conditions: CD-1, pH 7.4, read-out: % PPB (converted)
metric.name: fraction unbound
Answers are plain numbers.

Any idea what its fraction unbound is? The compound is Cc1cc(C(=O)O)nc(N2CCC(COc3ccccc3C(F)(F)F)C2)n1 (racemic) [Compound (±)-44] 0.04
